These data points were gathered from ChEMBL document CHEMBL4190311.

Target: Hexokinase-4 (Rattus norvegicus) (UniProt P17712)
Sequence (whole entry): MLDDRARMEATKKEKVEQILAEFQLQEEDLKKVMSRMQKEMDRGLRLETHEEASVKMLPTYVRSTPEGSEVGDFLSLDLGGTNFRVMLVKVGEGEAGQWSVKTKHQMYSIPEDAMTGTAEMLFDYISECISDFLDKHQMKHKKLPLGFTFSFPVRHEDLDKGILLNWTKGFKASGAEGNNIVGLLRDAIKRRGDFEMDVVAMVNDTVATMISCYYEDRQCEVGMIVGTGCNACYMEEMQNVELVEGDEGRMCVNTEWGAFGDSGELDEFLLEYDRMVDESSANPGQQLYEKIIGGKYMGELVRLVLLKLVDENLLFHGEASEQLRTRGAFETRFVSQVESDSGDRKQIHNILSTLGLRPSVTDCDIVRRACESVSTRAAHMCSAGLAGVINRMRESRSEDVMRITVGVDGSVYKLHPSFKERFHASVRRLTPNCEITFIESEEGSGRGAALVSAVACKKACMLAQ
Assay: Activation of glucokinase in rat INS1(832/13) cells assessed as increase in glucose sensitive insulin secretion at 20 uM after 2 hrs in presence of 5.5 mM glucose by AlphaLISA method relative to control
Format: cell-based
Calls of active or inactive are those of the source. The rule behind the calls is not given here.
RECORDED METRIC: fold change (FC)

Consider the worked cases shown below.
- COMPOUND: "COCC(C)Oc1cc(Oc2ccc(C(=O)N3CCC3)cc2)cc(C(=O)Nc2nc3c(s2)CN(C(=O)OC(C)(C)C)CC3)c1 (stereo not given)"
  STUDY TARGET: "Hexokinase-4 (Rattus norvegicus) (UniProt P17712)"
  TEST VALUE: 2.29
- COMPOUND: "COCC(C)Oc1cc(Oc2ccc(S(C)(=O)=O)cc2)cc(C(=O)Nc2nc3c(s2)CN(c2ccncc2)CC3)c1 (stereo not given)"
  STUDY TARGET: "Hexokinase-4 (Rattus norvegicus) (UniProt P17712)"
  TEST VALUE: 1.3
- COMPOUND: "COC[C@H](C)Oc1cc(Oc2ccc(C(=O)N3CCC3)cc2)cc(C(=O)Nc2nc3c(s2)CN(C(=O)N(C)C)CC3)c1"
  STUDY TARGET: "Hexokinase-4 (Rattus norvegicus) (UniProt P17712)"
  TEST VALUE: 3.52
- COMPOUND: "COC[C@H](C)Oc1cc(Oc2cc(F)cc(F)c2)cc(C(=O)Nc2nc3c(s2)CN(C(=O)OC(C)(C)C)CC3)c1"
  STUDY TARGET: "Hexokinase-4 (Rattus norvegicus) (UniProt P17712)"
  TEST VALUE: 1.3

Value sought for every listed compound: fold change (FC).
1. COCC(C)Oc1cc(Oc2ccc(S(C)(=O)=O)cc2)cc(C(=O)Nc2nc3c(s2)CCCC3)c1 (stereo not given)
2. COCC(C)Oc1cc(Oc2ccc(C(=O)N3CCC3)nc2)cc(C(=O)Nc2nc3c(s2)CN(C(=O)OC(C)(C)C)CC3)c1 (stereo not given)
3. COCC(C)Oc1cc(Oc2ccc(S(C)(=O)=O)cc2)cc(C(=O)Nc2nc3c(s2)CN(C(=O)OC(C)(C)C)CC3)c1 (stereo not given)
4. COC[C@H](C)Oc1cc(Oc2ccc(C(=O)N3CCC3)cc2)cc(C(=O)Nc2nc3c(s2)CCN(C(=O)OC(C)(C)C)C3)c1
5. COC[C@H](C)Oc1cc(Oc2ccc(C(=O)N3CCC3)cc2)cc(C(=O)Nc2nc3c(s2)CN(c2ccncn2)CC3)c1

Result:
1: inactive; 2: 5.4; 3: 1.72; 4: 2.24; 5: 4.62

Value sought for every listed compound: fold change (FC).
1. COCC(C)Oc1cc(Oc2ccc(S(=O)(=O)N3CCC3)cc2)cc(C(=O)Nc2nc3c(s2)CN(C(=O)OC(C)(C)C)CC3)c1 (stereo not given)
2. COCC(C)Oc1cc(Oc2ccc(C(=O)N(C)C)cc2)cc(C(=O)Nc2nc3c(s2)CN(C(=O)OC(C)(C)C)CC3)c1 (stereo not given)
3. COC[C@H](C)Oc1cc(Oc2ccc(C(=O)N3CCC3)cc2)cc(C(=O)Nc2nc3c(s2)CN(C(=O)OC)CC3)c1

Result:
1.37
1.24
5.68

Value sought for every listed compound: fold change (FC).
1. COC[C@H](C)Oc1cc(Oc2ccc(C(=O)N3CCC3)c(F)c2)cc(C(=O)Nc2nc3c(s2)CN(C(=O)OC(C)(C)C)CC3)c1
2. COCC(C)Oc1cc(Oc2ccc(S(C)(=O)=O)cc2)cc(C(=O)Nc2nc3c(s2)CCC3)c1 (stereo not given)
3. COC[C@H](C)Oc1cc(Oc2ccc(C(=O)N3CCC3)cc2)cc(C(=O)Nc2nc3c(s2)CN(c2ncccn2)CC3)c1

Result:
1: 1.1; 2: inactive; 3: 6.51
